target: UniProt P51449; test: RORγ Gal4 Reporter Gene Assay; assay type: cell-based
Sequence (P51449 whole entry, looked up, the tested form may be a part): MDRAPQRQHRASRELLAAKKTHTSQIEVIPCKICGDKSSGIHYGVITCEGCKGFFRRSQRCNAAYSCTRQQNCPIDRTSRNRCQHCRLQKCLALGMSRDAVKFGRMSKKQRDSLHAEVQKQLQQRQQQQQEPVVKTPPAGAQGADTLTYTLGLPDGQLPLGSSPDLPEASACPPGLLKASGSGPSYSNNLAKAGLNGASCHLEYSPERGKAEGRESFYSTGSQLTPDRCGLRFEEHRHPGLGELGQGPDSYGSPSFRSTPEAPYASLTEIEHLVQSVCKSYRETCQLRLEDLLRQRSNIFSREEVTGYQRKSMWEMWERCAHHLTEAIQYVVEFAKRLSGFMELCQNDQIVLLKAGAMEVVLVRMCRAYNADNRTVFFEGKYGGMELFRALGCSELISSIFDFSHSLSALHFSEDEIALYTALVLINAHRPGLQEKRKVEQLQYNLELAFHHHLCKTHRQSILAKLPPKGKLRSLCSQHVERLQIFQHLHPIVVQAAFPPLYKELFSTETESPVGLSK
READOUT_NAME: pIC50 (REN)

CC(C)(C)NS(=O)(=O)c1ccc(-c2sc(S(N)(=O)=O)nc2CC2CCCCC2)cc1C(F)(F)F
6.5/6.7/6.8
CC1(c2cc(C(=O)NCC(F)(F)F)cc(-c3sc(C(=O)N[C@H]4C[C@H](C(=O)O)C4)nc3CC3CCCCC3)c2)CC1
6.2/7.1/7.2
CC(C)(C)NS(=O)(=O)c1ccc(-c2sc(C(=O)N3CC4CC(C3)O4)nc2CC2CCCCC2)c(Cl)c1Cl
7.4/7.8/8.0

Which value of pIC50 (REN) has been reported for CC(C)(C)NS(=O)(=O)c1ccc(-c2sc(C(=O)NC34CC(C(=O)O)(C3)C4)nc2CC2CCCCC2)c(Cl)c1Cl in the records?
6.8/7.8/7.9

Recorded pIC50 (REN) of Cc1c(S(=O)(=O)NC(C)(C)C)ccc(-c2sc(C(=O)N[C@H]3C[C@H](C(=O)O)C3)nc2CC2CCCCC2)c1C(F)(F)F , please.
5.8/8.5/8.7

Item under review: CC1CC(C)CN(C(=O)c2nc(C(=O)NCC(C)(C)O)sc2-c2ccc(S(=O)(=O)NC(C)(C)C)c3ccccc23)C1 (centres unmarked) . Reported pIC50 (REN)?
6.0/6.9/6.9

# lookup: pIC50 (REN) of COC(c1nc(C(=O)N[C@H]2C[C@H](C(=O)O)C2)sc1-c1ccc(S(=O)(=O)NC(C)(C)C)c(C(C)(C)C)c1)C1CCCCC1 (some centres unmarked)
5.4/6.4/6.6

Look at this compound and give its reported pIC50 (REN). CC(C)(CO)NS(=O)(=O)c1ccc(-c2sc(C(=O)N3CC4(CCS(=O)(=O)CC4)C3)nc2CC2CCCCC2)c2ccccc12
6.2/7.1/7.1

Record request: pIC50 (REN) value, item NS(=O)(=O)c1c(Cl)cc(-c2sc(C(=O)NC3CCOCC3)nc2CC2CCCCC2)cc1C(F)(F)F
5.6/6.1/6.5
